All values here come from ChEMBL document CHEMBL3232709.

Catalogue of inhibition at 6.25 µg/mL values
- Test system: Mycobacterium tuberculosis
- Protocol: Antimycobacterial activity against Mycobacterium tuberculosis H37Rv assessed as growth inhibition at 6.25 ug/ml measured within 10 days by BACTEC MGIT method
- Assay type: functional
- Experimental Conditions: 240 h

Compound	Scale Unit	inhibition at 6.25 µg/mL
CN1CCN(c2nc(Oc3ccc(C#N)cn3)nc(-c3ccc(N4C(=O)CSC4c4ccc(F)cc4)cc3)n2)CC1 (centres undefined)	%	99
COc1ccc(C2SCC(=O)N2c2ccc(-c3nc(Oc4ccc(C#N)cn4)nc(N4CCN(C)CC4)n3)cc2)cc1 (centres undefined)	%	99
CN1CCN(c2nc(Oc3ccc(C#N)cc3)nc(-c3ccc(N4C(=O)CSC4c4ccc(O)cc4)cc3)n2)CC1 (centres undefined)	%	99
CN1CCN(c2nc(Oc3ccc(C#N)cn3)nc(-c3ccc(N4C(=O)CSC4c4ccc(O)cc4)cc3)n2)CC1 (centres undefined)	%	99
